These measurements were taken from the supplement of paper PMC10127200.

system: HEPG2; test: Euclidean distance of Cell Painting phenotypic profile (signed KS, 77 features) to DMSO centroid (dimensionless distance); 5 or 10 uM (library dependent); higher = stronger phenotypic change vs DMSO (phenoactivity); details: 48 h
Where a name gives a salt, the structure may show the parent alone.
property: Euclidean distance

• C[C@@H]1O[C@@H](OC[C@H]2O[C@@H](Oc3c(-c4ccc(O)c(O)c4)oc4cc(O)cc(O)c4c3=O)[C@H](O)[C@@H](O)[C@@H]2O)[C@H](O)[C@H](O)[C@H]1O = 0.632
• CN[C@@H]1CCc2[nH]c3ccc(C(N)=O)cc3c2C1 [Frovatriptan Succinate] = 0.505
• CN[C@@H]1[C@H](O[C@H]2[C@H](O[C@H]3[C@H](O)[C@@H](O)[C@H](NC(=N)N)[C@@H](O)[C@@H]3NC(=N)N)O[C@@H](C)[C@]2(O)CO)O[C@@H](CO)[C@H](O)[C@H]1O [Dihydrostreptomycin sulfate] = 0.549
• OC[C@H]1O[C@@H](c2ccc(Cl)c(Cc3ccc(O[C@H]4CCOC4)cc3)c2)[C@H](O)[C@@H](O)[C@@H]1O = 0.52
• CC[C@H](Nc1ncnc2[nH]cnc12)c1nc2cccc(F)c2c(=O)n1-c1ccccc1 = 0.747
• N#Cc1cc(CN2CCC(Nc3ncnc4sc(Cl)cc34)CC2)ccc1F = 1.15
• O=C(/C=C/c1ccc(O)c(O)c1)O[C@@H]1C[C@](O)(C(=O)O)C[C@@H](O)[C@H]1O = 1.21
• CC(=O)OCC(=O)[C@@]1(O)CC[C@H]2[C@@H]3CCC4=CC(=O)CC[C@]4(C)[C@H]3C(=O)C[C@@]21C [Cortisone acetate] = 0.755
• COc1ccc(-c2cc(=O)c3c(O)c(OC)c(O)cc3o2)cc1OC = 1.35
• Cc1ccc(/C(=C\CN2CCCC2)c2ccccn2)cc1 [Triprolidine Hydrochloride] = 1.31
• CC(=C(CCO)SSCC1CCCO1)N(C=O)Cc1cnc(C)nc1N (stereo in doubt) = 0.579
• Cc1c(-c2ccnn2C)cc(C(=O)NCc2ccc(S(C)(=O)=O)cn2)c(=O)n1-c1cccc(C(F)(F)F)c1 = 0.869
• Oc1cccc(-c2nc(N3CCOCC3)c3oc4ncccc4c3n2)c1 = 0.936
• C[C@@H]1C[C@H]2[C@@H]3C[C@H](F)C4=CC(=O)C=C[C@]4(C)[C@@]3(F)[C@@H](O)C[C@]2(C)[C@@]1(OC(=O)c1ccco1)C(=O)SCF [fluticasone furoate] = 1.53

* * *

tested on: OVCAR4; test: Euclidean distance of Cell Painting phenotypic profile (signed KS, 77 features) to DMSO centroid (dimensionless distance); 5 or 10 uM (library dependent); higher = stronger phenotypic change vs DMSO (phenoactivity); conditions: 48 h
Structures can show the parent of a compound that is named as a salt.
Euclidean distance reference
property: Euclidean distance

- CCC(Cc1c(I)cc(I)c(N)c1I)C(=O)O (stereo not drawn): 0.713
- Cc1cc(Nc2cc(N3CCN(C)CC3)nc(Sc3ccc(NC(=O)C4CC4)cc3)n2)n[nH]1: 2.98
- N[C@@H](C(=O)N[C@@H]1C(=O)N2C(C(=O)O)=C(Cl)CS[C@H]12)c1ccccc1: 1.53
- CCCCCCCCCC(=O)N[C@@H](Cc1c[nH]c2ccccc12)C(=O)N[C@H](CC(N)=O)C(=O)N[C@@H](CC(=O)O)C(=O)N[C@@H]1C(=O)NCC(=O)N[C@@H](CCCN)C(=O)N[C@@H](CC(=O)O)C(=O)N[C@H](C)C(=O)N[C@@H](CC(=O)O)C(=O)NCC(=O)N[C@H](CO)C(=O)N[C@@H]([C@H](C)CC(=O)O)C(=O)N[C@@H](CC(=O)c2ccccc2N)C(=O)O[C@@H]1C: 1.14
- COc1cccc(N2CCN(C3=Nc4c(F)cccc4C(CC(=O)O)N3c3cc(C(F)(F)F)ccc3OC)CC2)c1 (stereo not drawn): 1.01
- CN(C)CC(=O)Nc1ccc2[nH]c(=O)c3ccccc3c2c1: 1.07
- CNC(=O)[C@H](Cc1c[nH]c2ccccc12)NC(=O)[C@@H](CC(=O)NO)CC(C)C: 1.3
- CCCN1CCCC[C@H]1C(=O)Nc1c(C)cccc1C [Ropivacaine Mesilate]: 0.946
- CCOc1cc(N)c([N+](=O)[O-])cc1C(=O)NC1CCN(CC2CC=CCC2)CC1 (stereo not drawn) [Cinitapride Hydrogen Tartrate]: 1.57
- O=c1sn(-c2cccc3ccccc23)c(=O)n1Cc1ccccc1: 1.14
- CC(C)(C)c1ccc(C(=O)CCCN2CCC(OC(c3ccccc3)c3ccccc3)CC2)cc1: 1.22
- CO[C@H]1C[C@@H]2CC[C@@H](C)[C@@](O)(O2)C(=O)C(=O)N2CCCC[C@H]2C(=O)O[C@H]([C@H](C)C[C@@H]2CC[C@@H](O)[C@H](OC)C2)CC(=O)[C@H](C)/C=C(\C)[C@@H](O)[C@@H](OC)C(=O)[C@H](C)C[C@H](C)/C=C/C=C/C=C/1C [Rapamycin (Sirolimus)]: 2.1
- O=c1cc(-c2ccc(O)c(O)c2)oc2cc(O)cc(O)c12: 1.27

* * *

system: A549; experiment: Euclidean distance of Cell Painting phenotypic profile (signed KS, 77 features) to DMSO centroid (dimensionless distance); 5 or 10 uM (library dependent); higher = stronger phenotypic change vs DMSO (phenoactivity); conditions: 48 h
Structures can show the parent of a compound that is named as a salt.
Use 1 when the recorded Euclidean distance is no lower than 1; use 0 when it is lower.

• CCOC(=O)c1ccc(N2NC(=O)C(=Cc3ccc([N+](=O)[O-])o3)C2=O)cc1 = 1
• N[C@@H](Cc1c[nH]c2ccccc12)C(=O)O = 1
• OCCN1CCN(CCCN2c3ccccc3Sc3ccc(C(F)(F)F)cc32)CC1 [Fluphenazine dihydrochloride] = 1
• CC1(C)Cc2c(sc(NC(=O)c3ccn[nH]3)c2C(N)=O)C(C)(C)O1 = 0
• O=C1c2ccccc2C(=O)C1c1ccccc1 = 1

* * *

test system: A549; assay: Euclidean distance of Cell Painting phenotypic profile (signed KS, 77 features) to DMSO centroid (dimensionless distance); 5 or 10 uM (library dependent); higher = stronger phenotypic change vs DMSO (phenoactivity); settings: 48 h
Counter-ions that a name gives are not always drawn.
property: Euclidean distance

- CCc1cc2c(cc1N1CCC(N3CCOCC3)CC1)C(C)(C)c1[nH]c3cc(C#N)ccc3c1C2=O [Alectinib hydrochloride]: 2.36
- COC1CCN(C(=O)c2cc(Cc3n[nH]c(=O)c4ccccc34)ccc2F)CC1: 1.25
- O=C1OC(c2ccc(O)cc2)(c2ccc(O)cc2)c2ccccc21 [Phenolphthalein]: 0.655
- CC(C)=CCC/C(C)=C/CC/C(C)=C/CCC(=O)OC/C=C(\C)CCC=C(C)C [Gefarnate]: 0.898
- CC(C)(C)c1cc(C(C)(C)C)c(NC(=O)c2c[nH]c3ccccc3c2=O)cc1O [Ivacaftor (VX-770)]: 2.23
- O=c1[nH]cnc2c1ncn2[C@H]1CC[C@@H](CO)O1 [Didanosine]: 1.3
- CCCS(=O)(=O)Nc1ccc(F)c(C(=O)c2c[nH]c3ncc(Cl)cc23)c1F: 1.4
- COc1cc2c3cc1Oc1c(OC)c(OC)cc4c1[C@@H](Cc1ccc(O)c(c1)Oc1ccc(cc1)C[C@@H]3N(C)CC2)N(C)CC4 [Berbamine]: 3.17
- CC(=O)O[C@H]1C[C@@]2(C)[C@@H](C[C@@H](O)[C@H]3[C@@]4(C)CC[C@@H](O)[C@@H](C)[C@@H]4CC[C@@]32C)/C1=C(\CCC=C(C)C)C(=O)O [Fusidate Sodium]: 0.59
- Cc1ccccc1C(=O)Nc1ccc(C(=O)N2CCCC(O)c3cc(Cl)ccc32)c(C)c1 (centres undefined) [Tolvaptan]: 0.937
- COC(=O)C1=C(C)NC(C)=C(C(=O)OCCN(C)Cc2ccccc2)C1c1cccc([N+](=O)[O-])c1 (centres undefined) [Nicardipine HCl]: 1.28
- C[C@H](NC(=O)Cc1cc(F)cc(F)c1)C(=O)N[C@H](C(=O)OC(C)(C)C)c1ccccc1: 1.48
- CC(C(=O)O)c1ccc2c(c1)Cc1cccnc1O2 (centres undefined) [Pranoprofen]: 0.714
- Cc1nc(Nc2ccc(F)cc2)nc(N2CCc3ccccc3C2C)c1C (centres undefined) [Revaprazan Hydrochloride]: 1.19
- CCCCCCCCCCCCCCCCCCOCC(O)CO (centres undefined) [Batyl alcohol]: 0.609
- COc1ccccc1N1CCN(CC(O)COc2cccc3ccccc23)CC1 (centres undefined) [Naftopidil]: 1.01
- O=c1cc(-c2ccc(O)cc2)oc2cc(O)cc(O)c12 [Apigenin]: 0.946
- CC(C)(C)[C@H]1CC[C@H](CC2=C(O)C(=O)c3ccccc3C2=O)CC1 [Buparvaquone]: 1.1
- O=C(O)/C=C/c1ccc(Cn2ccnc2)cc1 [Ozagrel]: 0.773
- COc1cc(NS(=O)(=O)c2ccc(N)cc2)nc(OC)n1 [SulfadiMethoxine sodium]: 0.781
- O=C(Nc1ccccc1-c1cn2c(CN3CCNCC3)csc2n1)c1cnc2ccccc2n1: 5.64
- CNC(=O)c1cccc(-c2ccc3c(N4CCOC[C@@H]4C)nc(N4CCOC[C@@H]4C)nc3n2)c1: 3.14
- Cc1cc2ncnn2cc1Nc1ncc2c(n1)n(C1CCOCC1)c(=O)n2C: 1.07
- Cc1c(O)c(=O)ccn1C [Deferiprone]: 0.809
- CC(C)NCC(O)COc1cccc2[nH]ccc12 (centres undefined) [Pindolol]: 0.858
- COCCCC/C(=N\OCCN)c1ccc(C(F)(F)F)cc1 [Fluvoxamine maleate]: 0.895
- COc1ccc2c(c1)C(=O)N(CCc1ccc(S(=O)(=O)NC(=O)NC3CCCCC3)cc1)C(=O)C2(C)C [Gliquidone]: 0.773
- CC1C(=O)OC2C(O)C34C5CC(C(C)(C)C)C36C(OC(=O)C6O)OC4(C(=O)O5)C12O (centres undefined) [Ginkgolide B]: 1.63
- CC[C@H]1OC(=O)[C@H](C)[C@@H](O[C@H]2C[C@@](C)(OC)[C@@H](O)[C@H](C)O2)[C@H](C)[C@@H](O[C@@H]2O[C@H](C)C[C@H](N(C)C)[C@H]2O)[C@](C)(O)C[C@@H](C)CN(C)[C@H](C)[C@@H](O)[C@]1(C)O [Azithromycin Dihydrate]: 1.33
- Cc1ccc(C(C)C)c(O)c1 [Thymol]: 1.8
- CC(C)N1CCN(Cc2cnc(-c3cc(-c4cccc5[nH]ccc45)cc4[nH]ncc34)o2)CC1: 3.89
- CNC[C@@H](O)c1ccc(O)c(O)c1 [L-Adrenaline]: 0.654
- N[C@@H](C(=O)N[C@@H]1C(=O)N2C(C(=O)O)=C(Cl)CS[C@H]12)c1ccccc1 [Cefaclor]: 0.817
- CCCC(CCC)C(=O)O [Divalproex Sodium]: 0.566
